System: NCI-H226 lung
assay notes: NCI-60 one-dose screen, 48 h (100 = growth as untreated, 0 = no growth, -100 = all killed)
assay setup: 10 µM unless noted
The panel holds about 83,000 compounds, 20% with a hit somewhere; the sample as a whole holds those more often.
Binning rule for recorded growth: bottom end: < 70%; midrange: ≥ 70% and < 90%; top end: ≥ 90%

# compound, qualitative label
records = [
    ("O=C(CCCN1CCOCC1)Nc1ccc(Cn2nnc3c2C(=O)c2nnn(Cc4ccc(NC(=O)CCCN5CCOCC5)cc4)c2C3=O)cc1", "top end"),
    ("CCCCN(CC)CCCCCCCCCCN1CCCc2cc(OC)ccc21", "top end"),
    ("Nc1cccc(NC(=O)C(=O)Nc2cccc(N)c2)c1", "top end"),
    ("CC(=O)N1CC(Nc2ccc(OC(F)(F)F)cc2)=CC1=O", "bottom end"),
    ("C=C1C(=O)O[C@H]2[C@H]1CC/C(Cn1cc(Cn3ccc4cc(Cl)ccc43)nn1)=C\\CC[C@@]1(C)O[C@@H]21", "bottom end"),
    ("CCN(CC)CC(O)CNc1c2ccc([N+](=O)[O-])cc2nc2cc(OC)c(OC)cc12 (stereo not drawn)", "bottom end"),
    ("CCN(CC)CC(C)(C)C(=O)/C=C/c1ccccc1", "bottom end"),
    ("Cc1ccc(SCN2CCN(c3cccc(Cl)c3)CC2)cc1", "midrange"),
    ("O=C1Nc2ccccc2C12CC(c1ccccc1)=NN2 (stereo not drawn)", "midrange"),
    ("NC(N)=Nc1ccc(S(=O)(=O)O)cc1", "top end"),
    ("O=C(Nc1ccc(Nc2cc(Nc3ccccc3)ncn2)cc1)Nc1cc(C(F)(F)F)ccc1F", "top end"),
]

----------
The reader will find reported growth values listed item by item below.
System: SK-MEL-28 melanoma
assay notes: NCI-60 one-dose screen, 48 h (100 = growth as untreated, 0 = no growth, -100 = all killed)
assay setup: 10 µM unless noted
This is part of a sample that, as a whole, favours compounds with a hit. Of some 83,000 tested, about 20% had one in any assay.

# molecule, growth, %
records = [
    ("N#Cc1ccc(NC(=O)Nc2ccc(Cc3ccc(NC(=O)Nc4ccc(C#N)cc4)cc3)cc2)cc1", 36.7),
    ("Nc1c(C(=O)Nc2cccc3c2OCCO3)sc2nc3c(cc12)CN(Cc1ccccc1)CC3", 75.4),
    ("O=C(Nc1nc(-c2ccccc2)cc(-c2ccc(Cl)cc2)n1)c1ccncc1", 115),
    ("CC(=O)OCC(=O)C1CCC=CC1OC(C)=O (stereo unspecified)", 108),
    ("Oc1ccc2c(=S)cc(-c3ccc(Br)cc3)oc2c1O", 51.4),
    ("CCOC(=O)c1c2ncccc2n2c(=O)n(-c3ccc(Cl)cc3)nnc12", 115),
    ("COc1cc(C2CC(=O)Nc3c2c(C)nn3-c2nc3ccccc3[nH]2)cc(OC)c1OC (stereo unspecified)", 103),
    ("C=C1CCC2C3(C)COC(C)(C)OC3CCC2(C)C1C/C=C1/C(=O)OCC1OC(C)=O (stereo unspecified)", 69.6),
    ("CCN(CC)Cc1cc(Nc2c3ccccc3nc3cc(Cl)ccc23)ccc1O", -79.3),
    ("Cn1cc(-c2ccc(-c3cn(C)c4ncccc34)[nH]2)c2cccnc21", 84.8),
    ("COc1ccc(-c2cc(=O)[nH]c3c(OC)c4ccccc4c(OC)c23)cc1", 56.6),
    ("Nc1cccc(NC(=O)C(=O)Nc2cccc(N)c2)c1", 103),
    ("O=c1[nH]c(-c2ccccn2)nc2sc3c(c12)CCCCC3", 45.2),
    ("COc1ccc(C/C(C)=C(\\c2ccc(Cl)cc2)c2ccc(OCCN3CCCCCC3)cc2)cc1", 91),
    ("COc1ccc(-n2c(C)nc3c(c(C)nn3-c3ccccc3)c2=O)cc1", 67.4),
    ("O=C(CNC1C2CC3CC(C2)CC1C3)Sc1nnc2sc3ccccc3n12 (stereo unspecified)", 112),
    ("COc1cnc2c(c1)C(=O)c1c-2n(CCCBr)c(=O)c2cc([N+](=O)[O-])ccc12", 16.3),
    ("O=c1c2c3c(sc2n2c(CCl)nnc2n1Cc1ccccc1)CCCC3", -100),
    ("COc1cc(OC)c(/C=C/S(=O)(=O)Cc2cnc(OC)c(N)c2)c(OC)c1", 56.2),
    ("C/C(=C(/c1ccc(O)cc1)c1ccc(OCCN(C)C)cc1)c1ccccc1", 45.3),
    ("O=S(=O)(Nc1ccc(Cl)cc1Cl)c1ccc(-c2cnc(C3CC3)o2)cc1", 55.3),
]

----------
System: OVCAR-8 ovarian
assay notes: NCI-60 one-dose screen, 48 h
assay setup: 10 µM unless noted
Compounds without any hit were thinned out: in the full panel of roughly 83,000, 20% have a hit. The source made the active and inactive calls. Rule for the calls: active = growth percent below 10; inactive = the rest.
Outcomes: 1 (active), -1 (inactive)

# compound, qualitative label
measured = [
    ("CC/C=C\\C[C@H](F)C/C=C1/C(=O)C=C[C@@H]1C/C=C\\CCCC(=O)OC", 1),
    ("O=C(O)c1ccccc1Nc1cccc(S(F)(F)(F)(F)F)c1", -1),
    ("CCCCCCCCCc1cc(CN2CCCCC2)c(O)c(CN2CCCCC2)c1", -1),
    ("COc1ccc(-c2cnoc2-c2cc(OC)c3c(c2)OCCO3)cc1", 1),
    ("CCOC(=O)N1CCN(c2nc(Nc3cc(C)[nH]n3)c3ccccc3n2)CC1", -1),
    ("COc1ccc(-c2cc(C(=O)N=Nc3c(O)[nH]c4ccccc34)no2)cc1", -1),
    ("CC(=O)C1=C(O)C=C2Oc3c(C(=O)/C=C/c4cc(Cl)cc(Cl)c4)c(O)c(C)c(O)c3[C@]2(C)C1=O", 1),
    ("COc1ccc(C(=O)c2sc3nc4c(cc3c2N)CCCC4)cc1OC", -1),
    ("O=C1C2CC=CCC2C(=O)N1CNc1ccc(Cl)cc1 (stereo not given)", -1),
    ("COC(/C=C/c1ccc([N+](=O)[O-])cc1)OC", -1),
    ("CCCNc1nc(SC)nc(-c2cccc(N)c2)c1C#N", -1),
    ("CN1CCN(Cc2ccc(NC(=O)c3[nH]ncc3Nc3ncnc4[nH]ccc34)cc2)CC1", 1),
    ("COc1ccc(/C=N\\NC(=O)c2ccncc2)cc1O", -1),
    ("O=C(Cn1cc(CN2C(=O)c3ccccc3S2(=O)=O)nn1)Nc1ccc([N+](=O)[O-])cc1Cl", -1),
    ("O=C(Nc1cccc2[nH]c(C(F)(F)F)nc12)c1ccc(Br)cc1F", -1),
    ("O=C(NCc1cccc(C(F)(F)F)c1)[C@H](CCC(=O)N1CCN(C2CCCCC2)CC1)N1C(=O)[C@@H](N2C(=O)OC[C@@H]2c2ccccc2)[C@H]1/C(Cl)=C/c1ccccc1", -1),
    ("O=C(CNC1C2CC3CC(C2)CC1C3)Sc1nnc2sc3ccccc3n12 (stereo not given)", -1),
    ("Nc1c(C(=O)Nc2ccccc2)sc2nc3c(cc12)CN(CCc1ccccc1)CC3", -1),
    ("COc1ccc(-c2cc(=O)[nH]c3c(OC)c4ccccc4c(OC)c23)cc1", -1),
    ("O=C1Nc2c(ccc(Cl)c2Cl)/C1=C/c1cc(Br)c(O)c(Br)c1", -1),
    ("O=C(O)c1cccc2c1-c1ccccc1C2=O", -1),
    ("CN(C)c1ccc(C2Nc3ccccc3-n3cccc32)cc1 (stereo not given)", -1),
    ("COc1cc(NC(N)=NCC(C)(C)COc2ccc(C(F)(F)F)cc2)cnc1C#N", -1),
    ("CC(C)C1=C[C@@]23CC[C@@H]4[C@](C)(CCC[C@@]4(C)C(=O)OCC#CCN4CCCC4)[C@H]2C[C@@H]1[C@H]1C(=O)OC(=O)[C@H]13", -1),
    ("O=C(/C=C/c1cccc(Br)c1)c1ccccc1", -1),
    ("Nc1ccc(Nc2nccc(-c3ccc4ccccc4c3)n2)cc1", -1),
    ("N=S(=O)(NC(=O)c1ccc(Cl)cc1Cl)c1ccc(Br)s1 (stereo not given)", -1),
    ("O=C1c2cc3c(cc2-c2c1c1cc(Cl)c(Cl)cc1c(=O)n2CCCn1ccnc1)OCO3", 1),
    ("NS(=O)(=O)c1ccc(-n2ncc3c(=O)[nH]c(CN4CCN(c5cc6c(cc5F)c(=O)c(C(=O)O)cn6C5CC5)CC4)nc32)cc1", -1),
    ("CC(C)CC(CC1=CCC2CC1C2(C)C)C1=C(O)C(C)(C)C(=O)C(C)(C)C1=O (stereo not given)", 1),
    ("C#Cc1nc(Nc2cc(C)[nH]n2)c2ccccc2n1", 1),
    ("CCN(CC)CC(C)(C)C(=O)/C=C/c1ccccc1", -1),
    ("CCN(CC)Cc1cc(Nc2c3ccccc3nc3cc(Cl)ccc23)ccc1O", 1),
    ("C/C(Cc1ccc(Cl)cc1)=C(\\c1ccc(OCCN2CCCCCC2)cc1)c1ccc(OC(=O)Cc2ccccc2)cc1", -1),
    ("O=C(O)c1ccc(=O)[nH]n1", -1),
    ("CC1(C)CC(C(=O)OCCCCCCCCCCC[P+](c2ccccc2)(c2ccccc2)c2ccccc2)C(C)(C)N1O (stereo not given)", 1),
    ("OCC1C2C=CC(C2)C1CO (stereo not given)", -1),
    ("O=C(C[C@@H](C(=O)NCc1cccc(C(F)(F)F)c1)N1C(=O)[C@@H](N2C(=O)OC[C@@H]2c2ccccc2)[C@H]1/C=C/c1ccccc1)NC1CCN(Cc2ccccc2)CC1", -1),
    ("O=C1c2cccnc2C(=O)c2c1c(C(=O)OCCN1CCCCC1)c1ccccn21", 1),
    ("COc1cc(-c2nc3ccccc3s2)ccc1NC(=O)COc1ccc(Cl)cc1", 1),
]
